Here the recorded PER2::LUC luminescence is given for each entry.
system: mPer2Luc MEF; assay: PER2::LUC luminescence relative to vehicle control (fold of vehicle); higher = higher PER2::LUC reporter signal; conditions: time after treatment 30 h; 10 µM
Whole data set: some 5,300 compounds, median “PER2::LUC luminescence relative to vehicle control” near 0.96, cut for the highest 2% near 1.3. The list comes from a sample in which the highest values are over-represented; it also holds close analogues and randomly drawn compounds.

smiles-str	outcome-measure	meas-value
COc1ccc(-c2cc(=O)c3c(OC)c(OC)c(OC)c(OC)c3o2)cc1	PER2::LUC luminescence	1.03
CCOC(=O)c1ccc(N(C)c2csc(-c3ccccc3)n2)cc1	PER2::LUC luminescence	1.58

So what does the record say about PER2::LUC luminescence for COc1ccc(-c2cc(=O)c3ccccc3o2)cc1 ?
1.29

Also COc1cc(OC)cc(C(=O)Nc2ccc(Cl)c(-c3nc4ccc(N(C)C)cc4[nH]3)c2)c1 ?
1.35

---

test system: mPer2Luc MEF; test: PER2::LUC luminescence relative to vehicle control (fold of vehicle); higher = higher PER2::LUC reporter signal; conditions: time after treatment 24 h; 10 µM
In all, about 5,300 compounds were measured (“PER2::LUC luminescence relative to vehicle control”: median about 0.96, highest 2% from about 1.3 on). The sample as a whole holds a higher share of the highest values than the screen did.
Here the recorded PER2::LUC luminescence is given for each entry.
I'd appreciate a reply containing only the number, no unit.

Some compounds with known PER2::LUC luminescence results, for comparison:
compound	experimental-system	meas-value
NC(=O)c1cccc(NC(=O)/C=C/c2c[nH]c3ccccc23)c1	mPer2Luc MEF	1.08
CC(C)(Cc1nc(-c2ccc(O)cn2)no1)C(=O)NC1=C(C(=O)O)CCCC1	mPer2Luc MEF	1.02
O=C1C[C@@H](c2ccccc2)Oc2cc(O)cc(O)c21	mPer2Luc MEF	1.07
COc1ccc(-c2coc3cc(O)ccc3c2=O)c(OC)c1	mPer2Luc MEF	1.02
CCCC[C@@H](C)/C=C(C)/C=C(\C)C(=O)NC1=C[C@@](O)(/C=C/C=C/C=C/C(=O)NC2=C(O)CCC2=O)[C@@H]2O[C@@H]2C1=O	mPer2Luc MEF	0.951
CC[N+](CC)(CC(=O)Nc1c(C)cccc1C)Cc1ccccc1	mPer2Luc MEF	0.988
CCN(CC)CCNC(=O)c1cc(S(C)(=O)=O)ccc1OC	mPer2Luc MEF	0.984
CS(=O)(=O)c1cc(F)cc2c3c(n(Cc4ccc(Cl)cc4)c12)[C@@H](CC(=O)O)CC3	mPer2Luc MEF	1.13

So what does the record say about PER2::LUC luminescence for NC[C@@H](O)c1ccc(O)c(O)c1 ?
1.26

Also O=C(O)/C(=C\c1c(C(=O)O)[nH]c2cc(Cl)cc(Cl)c12)c1ccccc1 ?
1.4

Also O=C(O)CCc1c(C(=O)O)[nH]c2cc(Cl)cc(Cl)c12 ?
1.03

Also CC(C)NC[C@@H](O)COc1ccc(CC(N)=O)cc1 ?
1.01

Also Nc1n[n+]([O-])c2ccccc2[n+]1[O-] ?
1.36

Also Nc1ccc(-c2ccc3ccccc3n2)cc1 ?
1.74

Also OC[C@H]1O[C@@H](Oc2ccc(O)cc2)[C@H](O)[C@@H](O)[C@@H]1O ?
1.02

Also OC[C@H]1O[C@@H](n2cnc3c(NC4CCCC4)ncnc32)[C@H](O)[C@@H]1O ?
0.965

Also O=C1CCC(c2ccccc2)(C2CCN(Cc3ccccc3)CC2)C(=O)N1 (stereo unspecified) ?
0.825

Also CCCC1(C)C(C#N)(C#N)C1(C#N)C#N ?
1.15

Also NCC(O)c1ccc(O)c(O)c1 (stereo unspecified) ?
1.47

Also CCOc1ccc(C(Nc2ccccn2)c2ccc3ccc(C)nc3c2O)cc1C (stereo unspecified) ?
1.13

Also COc1ccc2c(c1)C[C@H](C(=O)Nc1ccc(-c3cn[nH]c3)cc1OCCN(C)C)CO2 ?
0.472

Also Nc1ccc(S(=O)(=O)NCCc2ccccc2)cc1 ?
1.03

Also C=CC(C1=CC(=O)C(OC)=CC1=O)c1ccc(OC)cc1 (stereo unspecified) ?
1.16

Also C[C@@H]1C[C@H]2[C@@H]3C[C@H](F)C4=CC(=O)C(Cl)=C[C@]4(C)[C@@]3(F)[C@@H](O)C[C@]2(C)[C@@]1(O)C(=O)CO ?
0.765

Also CCOc1cc2c(c(F)c1OCC)C(=N)N(CC(=O)c1cc(N3CCOCC3)c(OC)c(C(C)(C)C)c1)C2 ?
0.14

Also C=CC1=C(C)C2=CC3=NC(=C(CC(=O)O)C4=NC(=C(C)C4=C(O)O)C=c4[nH]c(c(C)c4CC)=CC1=N2)C(CCC(=O)O)C3C (stereo unspecified) ?
0.911
